# System: Pasteurella multocida
# method-summary: minimum inhibitory concentration (MIC)
# condition-details: isolate (source animal id): 201
minimum inhibitory concentration for assorted compounds

compound	minimum inhibitory concentration
CO/N=C(\C(=O)N[C@@H]1C(=O)N2C(C(=O)O)=C(CSC(=O)c3ccco3)CS[C@H]12)c1csc(N)n1	≤ 0.25 µg/mL
CNC(C)C1CCC(N)C(OC2C(N)CC(N)C(OC3OCC(C)(O)C(NC)C3O)C2O)O1 (stereo unspecified)	4 µg/mL
CC[C@H]1OC(=O)C[C@@H](O)[C@H](C)[C@@H](O[C@@H]2O[C@H](C)[C@@H](O)[C@H](N(C)C)[C@H]2O)[C@@H](CCN2C[C@H](C)C[C@H](C)C2)C[C@@H](C)C(=O)/C=C/C(C)=C/[C@@H]1CO[C@@H]1O[C@H](C)[C@@H](O)[C@@H](OC)[C@H]1OC	8 µg/mL
CC[C@H]1OC(=O)C[C@@H](O)[C@H](C)[C@@H](O[C@@H]2O[C@H](C)[C@@H](O)[C@H](N(C)C)[C@H]2O)[C@@H](CCN2CCCCC2)C[C@@H](C)C(=O)/C=C/C(C)=C/[C@@H]1CN1CCCCC1	≤ 1 µg/mL
COc1cc(NS(=O)(=O)c2ccc(N)cc2)nc(OC)n1	> 256 µg/mL
COc1cc(Cc2cnc(N)nc2N)cc(OC)c1OC.Cc1cc(NS(=O)(=O)c2ccc(N)cc2)no1	≤ 2 µg/mL

---

minimum inhibitory concentration for assorted molecules
# Tested on: Pasteurella multocida
# method-summary: minimum inhibitory concentration (MIC)
# condition-details: isolate (source animal id): 296
recorded-endpoint: minimum inhibitory concentration

cpd-smiles	measurement-target	recorded-endpoint	result
COc1cc(Cc2cnc(N)nc2N)cc(OC)c1OC.Cc1cc(NS(=O)(=O)c2ccc(N)cc2)no1	Pasteurella multocida	minimum inhibitory concentration	≤ 2 mg/L
CC[C@H]1OC(=O)C[C@@H](O)[C@H](C)[C@@H](O[C@@H]2O[C@H](C)[C@@H](O[C@H]3C[C@@](C)(O)[C@@H](O)[C@H](C)O3)[C@H](N(C)C)[C@H]2O)[C@@H](CC=O)C[C@@H](C)C(=O)/C=C/C(C)=C/[C@@H]1CO[C@@H]1O[C@H](C)[C@@H](O)[C@@H](OC)[C@H]1OC	Pasteurella multocida	minimum inhibitory concentration	> 32 mg/L
CN1C[C@@H]2C[C@H]1CN2c1cc2c(cc1F)c(=O)c(C(=O)O)cn2C1CC1	Pasteurella multocida	minimum inhibitory concentration	> 1 mg/L

---

# Tested on: Pasteurella multocida
# method-summary: minimum inhibitory concentration (MIC)
# condition-details: isolate (source animal id): 165

compound	measurement-target	minimum inhibitory concentration
CO/N=C(\C(=O)N[C@@H]1C(=O)N2C(C(=O)O)=C(CSC(=O)c3ccco3)CS[C@H]12)c1csc(N)n1 [Ceftiofur]	Pasteurella multocida	≤ 0.25 µg/mL
CC[C@H]1OC(=O)C[C@@H](O)[C@H](C)[C@@H](O[C@@H]2O[C@H](C)[C@@H](O)[C@H](N(C)C)[C@H]2O)[C@@H](CCN2C[C@H](C)C[C@H](C)C2)C[C@@H](C)C(=O)/C=C/C(C)=C/[C@@H]1CO[C@@H]1O[C@H](C)[C@@H](O)[C@@H](OC)[C@H]1OC [Tilmicosin]	Pasteurella multocida	> 16 µg/mL
CN1C[C@@H]2C[C@H]1CN2c1cc2c(cc1F)c(=O)c(C(=O)O)cn2C1CC1 [Danofloxacin]	Pasteurella multocida	≤ 0.12 µg/mL
CN[C@@H]1[C@H](O)[C@H](NC)[C@H]2O[C@@]3(O)C(=O)C[C@@H](C)O[C@H]3O[C@@H]2[C@H]1O [Spectinomycin]	Pasteurella multocida	> 64 µg/mL

---

# Test system: Mannheimia haemolytica
# method-summary: minimum inhibitory concentration (MIC)
# condition-details: isolate (source animal id): 202
recorded-endpoint: minimum inhibitory concentration (µg/mL)

compound	sign	readout-number
CC[C@H]1OC(=O)C[C@@H](O)[C@H](C)[C@@H](O[C@@H]2O[C@H](C)[C@@H](O)[C@H](N(C)C)[C@H]2O)[C@@H](CCN2CCCCC2)C[C@@H](C)C(=O)/C=C/C(C)=C/[C@@H]1CN1CCCCC1 [Tildipirosin]	=	4
CC1(C)S[C@@H]2[C@H](NC(=O)[C@H](N)c3ccccc3)C(=O)N2[C@H]1C(=O)O [Ampicillin]	>	16
CCC[C@@H]1C[C@@H](C(=O)N[C@@H]([C@H]2O[C@H](SC)[C@H](O)[C@@H](O)[C@H]2O)[C@H](C)Cl)N(C)C1 [Clindamycin]	=	8
CC[C@H]1OC(=O)C[C@@H](O)[C@H](C)[C@@H](O[C@@H]2O[C@H](C)[C@@H](O[C@H]3C[C@@](C)(O)[C@@H](O)[C@H](C)O3)[C@H](N(C)C)[C@H]2O)[C@@H](CC=O)C[C@@H](C)C(=O)/C=C/C(C)=C/[C@@H]1CO[C@@H]1O[C@H](C)[C@@H](O)[C@@H](OC)[C@H]1OC [Tylosin]	>	32

---

# Tested on: Mannheimia haemolytica
# method-summary: minimum inhibitory concentration (MIC)
# condition-details: isolate (source animal id): 183

compound	minimum inhibitory concentration
CCCN1C[C@H](C)[C@@H](O)[C@](C)(O)[C@@H](CC)OC(=O)[C@H](C)[C@@H](O[C@H]2C[C@@](C)(OC)[C@@H](O)[C@H](C)O2)[C@H](C)[C@@H](O[C@@H]2O[C@H](C)C[C@H](N(C)C)[C@H]2O)[C@](C)(O)C[C@H]1C	≤ 1 µg/mL
CNC(C)C1CCC(N)C(OC2C(N)CC(N)C(OC3OCC(C)(O)C(NC)C3O)C2O)O1 (stereo not drawn)	2 µg/mL
CC[C@H]1OC(=O)C[C@@H](O)[C@H](C)[C@@H](O[C@@H]2O[C@H](C)[C@@H](O[C@H]3C[C@@](C)(O)[C@@H](O)[C@H](C)O3)[C@H](N(C)C)[C@H]2O)[C@@H](CC=O)C[C@@H](C)C(=O)/C=C/C(C)=C/[C@@H]1CO[C@@H]1O[C@H](C)[C@@H](O)[C@@H](OC)[C@H]1OC	> 32 µg/mL

---

# System: Mannheimia haemolytica
# method-summary: minimum inhibitory concentration (MIC)
# condition-details: isolate (source animal id): 308
minimum inhibitory concentration for assorted compounds

cpd-smiles	minimum inhibitory concentration
CCN1CCN(c2cc3c(cc2F)c(=O)c(C(=O)O)cn3C2CC2)CC1	≤ 0.12 µg/mL
CC[C@H]1OC(=O)C[C@@H](O)[C@H](C)[C@@H](O[C@@H]2O[C@H](C)[C@@H](O)[C@H](N(C)C)[C@H]2O)[C@@H](CCN2CCCCC2)C[C@@H](C)C(=O)/C=C/C(C)=C/[C@@H]1CN1CCCCC1	≤ 1 µg/mL
CCCN1C[C@H](C)[C@@H](O)[C@](C)(O)[C@@H](CC)OC(=O)[C@H](C)[C@@H](O[C@H]2C[C@@](C)(OC)[C@@H](O)[C@H](C)O2)[C@H](C)[C@@H](O[C@@H]2O[C@H](C)C[C@H](N(C)C)[C@H]2O)[C@](C)(O)C[C@H]1C	≤ 1 µg/mL
NC[C@@H]1O[C@H](O[C@H]2[C@@H](O)[C@H](O[C@@H]3[C@@H](O)[C@H](N)C[C@H](N)[C@H]3O[C@H]3O[C@H](CN)[C@@H](O)[C@H](O)[C@H]3N)O[C@@H]2CO)[C@H](N)[C@@H](O)[C@@H]1O	8 µg/mL

---

# Tested on: Mannheimia haemolytica
# method-summary: minimum inhibitory concentration (MIC)
# condition-details: isolate (source animal id): 211
minimum inhibitory concentration for assorted compounds
recorded-endpoint: minimum inhibitory concentration (µg/mL)

cpd-smiles	sign	readout-number
COc1cc(Cc2cnc(N)nc2N)cc(OC)c1OC.Cc1cc(NS(=O)(=O)c2ccc(N)cc2)no1	≤	2
CC[C@H]1OC(=O)C[C@@H](O)[C@H](C)[C@@H](O[C@@H]2O[C@H](C)[C@@H](O[C@H]3C[C@@](C)(O)[C@@H](O)[C@H](C)O3)[C@H](N(C)C)[C@H]2O)[C@@H](CC=O)C[C@@H](C)C(=O)/C=C/C(C)=C/[C@@H]1CO[C@@H]1O[C@H](C)[C@@H](O)[C@@H](OC)[C@H]1OC	>	32
NC[C@@H]1O[C@H](O[C@H]2[C@@H](O)[C@H](O[C@@H]3[C@@H](O)[C@H](N)C[C@H](N)[C@H]3O[C@H]3O[C@H](CN)[C@@H](O)[C@H](O)[C@H]3N)O[C@@H]2CO)[C@H](N)[C@@H](O)[C@@H]1O	=	8
CCN1CCN(c2cc3c(cc2F)c(=O)c(C(=O)O)cn3C2CC2)CC1	≤	0.12
CC1(C)S[C@@H]2[C@H](NC(=O)Cc3ccccc3)C(=O)N2[C@H]1C(=O)O	>	8
CN[C@@H]1[C@H](O)[C@H](NC)[C@H]2O[C@@]3(O)C(=O)C[C@@H](C)O[C@H]3O[C@@H]2[C@H]1O	=	32
CC[C@H]1OC(=O)C[C@@H](O)[C@H](C)[C@@H](O[C@@H]2O[C@H](C)[C@@H](O)[C@H](N(C)C)[C@H]2O)[C@@H](CCN2C[C@H](C)C[C@H](C)C2)C[C@@H](C)C(=O)/C=C/C(C)=C/[C@@H]1CO[C@@H]1O[C@H](C)[C@@H](O)[C@@H](OC)[C@H]1OC	=	16

Measured values drawn from the supplement of paper PMC8612539 for this set.
